Some compounds, each annotated with its measured AC50.
Molecular target: Glucocorticoid receptor (Homo sapiens, UniProt P04150); note: assay procedure not described here
Sequence (P04150 whole entry): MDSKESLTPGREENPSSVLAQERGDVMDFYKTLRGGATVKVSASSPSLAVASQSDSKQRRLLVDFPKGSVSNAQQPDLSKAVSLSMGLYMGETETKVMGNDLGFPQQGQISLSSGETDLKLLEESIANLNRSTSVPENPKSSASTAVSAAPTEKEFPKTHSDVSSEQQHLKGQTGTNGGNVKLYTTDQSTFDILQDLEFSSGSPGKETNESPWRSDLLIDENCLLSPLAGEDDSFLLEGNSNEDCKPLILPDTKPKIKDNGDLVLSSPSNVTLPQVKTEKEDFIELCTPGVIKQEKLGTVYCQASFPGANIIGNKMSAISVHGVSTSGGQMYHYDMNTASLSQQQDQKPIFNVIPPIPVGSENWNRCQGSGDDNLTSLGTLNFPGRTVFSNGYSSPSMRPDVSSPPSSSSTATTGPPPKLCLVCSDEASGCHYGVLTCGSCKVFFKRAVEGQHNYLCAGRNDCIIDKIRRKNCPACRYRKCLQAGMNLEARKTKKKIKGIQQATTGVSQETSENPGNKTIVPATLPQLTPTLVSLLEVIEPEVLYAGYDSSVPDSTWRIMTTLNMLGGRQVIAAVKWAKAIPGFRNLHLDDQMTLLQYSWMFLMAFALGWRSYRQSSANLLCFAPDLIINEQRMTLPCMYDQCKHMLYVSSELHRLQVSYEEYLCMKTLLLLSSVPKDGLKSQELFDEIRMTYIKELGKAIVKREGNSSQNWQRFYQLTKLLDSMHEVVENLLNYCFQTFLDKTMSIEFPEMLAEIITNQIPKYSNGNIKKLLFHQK
endpointLabel: AC50

1) CCN(CC)CC(=O)Nc1c(C)cccc1C = > 30 µM
2) CC1(C)O[C@@H]2C[C@H]3[C@@H]4CCC5=CC(=O)C=C[C@]5(C)[C@@]4(F)[C@@H](O)C[C@]3(C)[C@]2(C(=O)CO)O1 [TRIAMCINOLONE ACETONIDE] = 0.0031 µM
3) COc1ccc(C(Cl)=C(c2ccc(OC)cc2)c2ccc(OC)cc2)cc1 = > 30 µM
4) CN(C)CCC(O)(c1ccccc1)c1ccccc1Cl (centres undefined) = > 10 µM

---

Some compounds, each annotated with its measured AC50.
molecular target: Gamma-aminobutyric acid receptor subunit alpha-1 (Rattus norvegicus, UniProt P62813); format: functional; note: assay procedure not described here
Sequence (P62813 whole entry): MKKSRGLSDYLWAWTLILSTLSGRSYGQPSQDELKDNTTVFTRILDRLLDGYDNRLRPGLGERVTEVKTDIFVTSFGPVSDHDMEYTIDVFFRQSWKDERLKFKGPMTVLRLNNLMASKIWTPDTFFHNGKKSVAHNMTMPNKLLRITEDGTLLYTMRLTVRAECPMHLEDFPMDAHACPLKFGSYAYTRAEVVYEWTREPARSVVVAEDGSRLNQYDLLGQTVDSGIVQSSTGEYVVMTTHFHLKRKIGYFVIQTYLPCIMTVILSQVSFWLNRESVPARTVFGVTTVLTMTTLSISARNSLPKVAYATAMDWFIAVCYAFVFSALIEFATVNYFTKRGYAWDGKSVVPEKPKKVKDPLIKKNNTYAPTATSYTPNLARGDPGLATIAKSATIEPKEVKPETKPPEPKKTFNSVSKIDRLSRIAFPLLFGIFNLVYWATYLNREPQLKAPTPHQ
endpointLabel: AC50

1) O=C(O)[C@H]1/C(=C/CO)O[C@@H]2CC(=O)N21 = > 30 µM
2) CN1CCC(=C2c3ccccc3CC(=O)c3sccc32)CC1 = > 10 µM
3) CCOC(=O)Nc1ccc(NCc2ccc(F)cc2)nc1N = > 30 µM
4) CCN(CC)Cc1nccn1-c1ccc([N+](=O)[O-])cc1C(=O)c1ccccc1Cl = > 30 µM
5) CC1=C(CC(=O)O)c2cc(F)ccc2/C1=C\c1ccc([S+](C)[O-])cc1 (stereo unspecified) = > 10 µM
6) O=C1CC2(CCCC2)CC(=O)N1CCCCN1CCN(c2ncccn2)CC1 = > 10 µM
7) CCCO[C@H]1[C@@H]([C@@H](COCc2ccc(Cl)cc2)OCc2ccc(Cl)cc2)OC(OCC)[C@@H]1O (stereo partly specified) [CLOBENOSIDE] = > 30 µM
8) CCN(CCO)CCCC(C)Nc1ccnc2cc(Cl)ccc12 (stereo unspecified) [HYDROXYCHLOROQUINE] = > 10 µM
9) CCOCC(O)COc1ccc(NC(=O)CC[S+](C)C)cc1 (stereo unspecified) = > 30 µM
10) C#CCN(C)Cc1ccccc1 = > 30 µM
11) O=C1CN=C(c2ccccc2Cl)c2cc([N+](=O)[O-])ccc2N1 = 0.0025 µM

---

Form: system (Sodium-dependent serotonin transporter (Homo sapiens, UniProt P31645)), quantity (AC50), values below. Note: assay procedure not described here.
endpointLabel: AC50

1. C[C@]12CCC(=O)C=C1C=C[C@@H]1[C@@H]2CC[C@@]2(C)[C@H]1CC[C@@]21CCC(=O)O1 = > 30 µM
2. CCC(=O)O[C@H](CC(=O)O)C[N+](C)(C)C [LEVOCARNITINE PROPIONATE] = > 30 µM
3. CCC(=O)c1ccc2c(c1)N(CC(C)N(C)C)c1ccccc1S2 (centres undefined) = > 10 µM
4. CN(C)[C@@H]1C(O)=C(C(=O)NCN2CCCC2)C(=O)[C@@]2(O)C(O)=C3C(=O)c4c(O)cccc4[C@@](C)(O)[C@H]3C[C@@H]12 = > 10 µM
5. CCN(CC)C(C)C(=O)c1ccccc1 (centres undefined) = > 30 µM
6. CC1=C(/C=C/C(C)=C/C=C/C(C)=C/C(=O)Oc2c(C)c(C)c3c(c2C)CCC(C)(CCCC(C)CCCC(C)CCCC(C)C)O3)C(C)(C)CCC1 (centres undefined) = > 30 µM
7. CCC1(CC)C(=O)NC(=O)N(C)C1=O = > 10 µM
8. CCOC(=O)O[C@]1(C(=O)COC(=O)CC)CC[C@H]2[C@@H]3CCC4=CC(=O)C=C[C@]4(C)[C@H]3[C@@H](O)C[C@@]21C [PREDNICARBATE] = > 10 µM
9. Cc1cnc(Nc2ccc(OCCN3CCCC3)cc2)nc1Nc1cccc(S(=O)(=O)NC(C)(C)C)c1 = 0.732 µM
10. CCCCCCOC(=O)NC(=N)c1ccc(NCc2nc3cc(C(=O)N(CCC(=O)OCC)c4ccccn4)ccc3n2C)cc1 [DABIGATRAN ETEXILATE] = > 30 µM
11. CC(=O)OCC1=C(C(=O)O)N2C(=O)[C@@H](NC(=O)CSc3ccncc3)[C@H]2SC1 = > 10 µM
12. CN(C)CCOC(c1ccc(Cl)cc1)c1ccccn1 (centres undefined) = 3 µM
13. OCCOCCN1CCN(C(c2ccccc2)c2ccc(Cl)cc2)CC1 (centres undefined) [HYDROXYZINE] = > 10 µM
14. CN(C)CCC(O)(c1ccccc1)c1ccccc1Cl (centres undefined) = > 10 µM
15. Cc1ccc(-c2ncc(Cl)cc2-c2ccc(S(C)(=O)=O)cc2)cn1 = > 10 µM
16. CCC[C@@]1(CCc2ccccc2)CC(O)=C([C@H](CC)c2cccc(NS(=O)(=O)c3ccc(C(F)(F)F)cn3)c2)C(=O)O1 = > 30 µM
17. CCCCC[C@H](O)CC[C@@H]1[C@H]2Cc3cccc(OCC(=O)O)c3C[C@H]2C[C@H]1O = > 30 µM
18. CCOCC(O)COc1ccc(NC(=O)CC[S+](C)C)cc1 (centres undefined) = > 30 µM
19. CCN(CC)Cc1nccn1-c1ccc([N+](=O)[O-])cc1C(=O)c1ccccc1Cl = > 30 µM

---

Form: system (Androgen receptor (Homo sapiens, UniProt P10275)), quantity (AC50), values below. Note: assay procedure not described here.
endpointLabel: AC50

1. CC(C)(Oc1ccc(Cl)cc1)C(=O)NC(=O)NCN1CCOCC1 [PLAFIBRIDE] = > 30 µM
2. CCCCCCCCCCCCCCCC(=O)OC[C@H](COP(=O)([O-])OCC[N+](C)(C)C)OC(=O)CCCCCCCCCCCCCCC [COLFOSCERIL PALMITATE] = > 30 µM
3. NC(=O)C1(N2CCCCC2)CCN(CCCN2c3ccccc3CCc3ccccc32)CC1 [CARPIPRAMINE] = > 30 µM
4. CC(C)(Oc1ccc(C(=O)c2ccc(Cl)cc2)cc1)C(=O)O [FENOFIBRIC ACID] = > 30 µM
5. COC(=O)N(C)c1c(N)nc(-c2nn(Cc3ccccc3F)c3ncccc23)nc1N [RIOCIGUAT] = > 30 µM
6. CC(C)NC[C@H](O)COc1ccc(O)cc1 [PRENALTEROL] = > 30 µM
7. OC(CN1CCCCC1)c1cc(-c2ccccc2)on1 (stereo not given) [PERISOXAL] = > 30 µM
8. [H]/N=C(/N)NS(=O)(=O)c1ccc(N)cc1 [SULFAGUANIDINE] = > 30 µM
9. Cc1cn(-c2cc(NC(=O)c3ccc(C)c(Nc4nccc(-c5cnccn5)n4)c3)cc(C(F)(F)F)c2)cn1 [RADOTINIB] = > 30 µM
10. O=NN(CCCl)C(=O)NCCCl [CARMUSTINE] = > 30 µM
11. O=c1[nH]c2ccccc2n1CCN1CCN(c2cccc(C(F)(F)F)c2)CC1 [FLIBANSERIN] = > 30 µM
12. CO[C@H]1/C=C/O[C@@]2(C)Oc3c(C)c(O)c4c(c3C2=O)C2=NC3(CCN(CC(C)C)CC3)NC2=C(NC(=O)/C(C)=C\C=C\[C@H](C)[C@H](O)[C@@H](C)[C@@H](O)[C@@H](C)[C@H](OC(C)=O)[C@@H]1C)C4=O [RIFABUTIN] = > 30 µM
13. C[C@H](Nc1ncnc2[nH]cnc12)c1cc2cccc(Cl)c2c(=O)n1-c1ccccc1 [DUVELISIB] = > 30 µM
14. COC(=O)N[C@H](C(=O)N1CC2(CC2)C[C@H]1c1ncc(-c2ccc3c(c2)C(F)(F)c2cc(-c4ccc5nc([C@@H]6[C@H]7CC[C@H](C7)N6C(=O)[C@@H](NC(=O)OC)C(C)C)[nH]c5c4)ccc2-3)[nH]1)C(C)C = > 10 µM
15. COc1c(OCCCN2CCOCC2)ccc2c1N=C(NC(=O)c1cnc(N)nc1)N1CCN=C21 [COPANLISIB] = > 30 µM
